Just for reference, PubChem BioAssay (NCI) is where these values come from.

Test system: RPMI-8226 leukemia
Test: NCI tumour cell line growth inhibition, 48 h; in the data active means GI50 below about 0.43 µM; inactive means the rest
Outcome codes: active, inactive

- smiles-str: "CNC(=O)c1cc2c(Oc3ccc(NC(=O)C4(C(=O)Nc5ccc(F)cc5)CC4)cc3)ccnc2cc1OC"
  label-value: "inactive"
- smiles-str: "COCCOCCOCc1n(Cc2ccc3ccccc3n2)c2ccccc2[n+]1Cc1ccc2ccccc2c1"
  label-value: "active"
- smiles-str: "COc1ccc2cc(-c3ccc(-c4ccc(C(=N)N)s4)s3)ccc2c1"
  label-value: "inactive"
- smiles-str: "CCC(=C(c1ccc(OCCCN(C)C)cc1)c1ccc(OCCCN(C)C)cc1)c1ccc(Cl)cc1"
  label-value: "active"
- smiles-str: "CC(=O)[O-].CC(=O)[O-].CC(=O)[O-].CC(=O)[O-].[Mo+2].[Mo+2]"
  label-value: "inactive"
- smiles-str: "c1ccc(Cn2cnc3ccc(-c4nc(-c5ccc6c(c5)ncn6C5CCCCC5)cn5ccnc45)cc32)cc1"
  label-value: "inactive"

====

Tested on: A549 NSCLC
Test: NCI tumour cell line growth inhibition, 48 h
Some compounds, each annotated with its measured TGI.
metric-name: TGI

- compound: "C=CCn1c(=O)ccn(COCCO)c1=O"
  measurement-target: "A549 NSCLC"
  metric-name: "TGI"
  observed-result: "> 100 µM"
- compound: "O=c1c2ccccc2nc2[nH][nH]c(=S)n12"
  measurement-target: "A549 NSCLC"
  metric-name: "TGI"
  observed-result: "> 100 µM"
- compound: "CC12CC(=O)C3C(C(=O)C1)C32C (stereo not drawn)"
  measurement-target: "A549 NSCLC"
  metric-name: "TGI"
  observed-result: "> 100 µM"

====

Test system: MDA-N
Experiment: NCI tumour cell line growth inhibition, 48 h
metric-name: TGI

- molecule: "Cc1c2c(n(CCc3ccc(Cl)cc3)c1C)NN=C(C#N)S2(=O)=O"
  observed-result: "> 100 µM"
- molecule: "Cc1cc2[nH]c3[nH]c(=O)[nH]c(=O)c3c2cc1C"
  observed-result: "> 100 µM"
- molecule: "Oc1ccccc1/C=N/c1nc2cc3sc(/N=C/c4ccccc4O)nc3cc2s1"
  observed-result: "> 100 µM"
- molecule: "CCN(CCO)CC1COc2ccccc2O1 (stereo not given)"
  observed-result: "> 100 µM"
- molecule: "Nc1c(-c2cccc3ccccc23)c2ccc([N+](=O)[O-])cc2c(=O)n1-c1nc2ccccc2s1"
  observed-result: "> 31.6 µM"

====

Some compounds, each annotated with its measured TGI.
System: PC-3 prostate
Test: NCI tumour cell line growth inhibition, 48 h

- compound: "COc1ccc(CC(C)C(C)Cc2ccc(OC)c(OC)c2)cc1OC (centres undefined)"
  TGI: "> 1400 µM"
- compound: "O=C(NCCN1CCOCC1)c1ccc2cc(C(=O)N3CC(CCl)c4ccc([N+](=O)[O-])cc43)[nH]c2c1 (centres undefined)"
  TGI: "48.8 µM"
- compound: "Cn1cc(-c2csc(-c3cn(C)c4ccccc34)n2)c2cnccc21"
  TGI: "2.99 µM"
- compound: "C=CCO/N=C/c1cc(NC(=S)c2ccoc2C)ccc1Cl"
  TGI: "27.6 µM"

====

Some compounds, each annotated with its measured TGI.
Tested on: EKVX NSCLC
Assay: NCI tumour cell line growth inhibition, 48 h
metric-name: TGI

- compound: "O=S1(=O)NCCCN1CCNc1nccc(-c2c(-c3cccc(O)c3)nc3sccn23)n1"
  observed-result: "> 100 µM"
- compound: "O=S(=O)(O)c1cc2ccc1/C=C\\c1ccc(cc1S(=O)(=O)O)N=Nc1ccc(c(S(=O)(=O)O)c1)/C=C\\c1ccc(cc1S(=O)(=O)O)N=N2"
  observed-result: "> 100 µM"
- compound: "COc1ccccc1/C=C/C(=O)/C=C/c1ccccc1O"
  observed-result: "5.63 µM"
- compound: "COc1ccc(CC(C)C(C)Cc2ccc(OC)c(OC)c2)cc1OC (stereo unspecified)"
  observed-result: "> 1400 µM"
- compound: "CC1(C)N=C(N)N=C(N)N1c1ccc(OCC(=O)Nc2ccccc2)c(Cl)c1"
  observed-result: "> 100 µM"
- compound: "N#CC(C#N)=CNC(=S)c1ccncc1"
  observed-result: "> 100 µM"
- compound: "Cn1c2ccccc2c2c(=O)c3ccccc3[nH]c21"
  observed-result: "> 100 µM"
- compound: "N=S(c1ccccc1)c1ccccc1[N+](=O)[O-] (stereo unspecified)"
  observed-result: "38.5 µM"
- compound: "C[C@H]1[C@H](C)CC[C@]2(C(=O)NCCNCCN)CC[C@]3(C)C(=CC[C@@H]4[C@@]5(C)CCC(=O)C(C)(C)[C@@H]5CC[C@]43C)[C@H]12"
  observed-result: "3.02 µM"
- compound: "CC(C)c1ccc(C(=O)Nc2sc3c(CN(C)C)c(O)ccc3c2C(N)=O)cc1"
  observed-result: "> 100 µM"
- compound: "COc1ccc2nc3cc(Cl)ccc3c(NCCCNCCCNc3c4ccc(Cl)cc4nc4ccc(OC)cc34)c2c1"
  observed-result: "0.89 µM"
- compound: "COc1ccc2cc3c4cc5c(cc4cc[n+]3cc2c1OC)OCO5"
  observed-result: "> 100 µM"
- compound: "Cc1cc2c(Br)cc(Br)c(O)c2nc1C(=O)c1ccccc1"
  observed-result: "> 100 µM"
- compound: "CSc1cc(Cl)c(C)cc1S(=O)(=O)NC(=O)NNc1ccc(Cl)cc1"
  observed-result: "> 100 µM"
- compound: "CCN(CC)CCNC(=O)c1cn2ncnc(Oc3ccc(NC(=O)Nc4ccc(Cl)c(C(F)(F)F)c4)c(F)c3)c2c1C"
  observed-result: "3.34 µM"
- compound: "CCCCCCCCCCCCCC(=O)OCC1OC(=O)CC1O (stereo unspecified)"
  observed-result: "> 100 µM"
- compound: "COc1cc([N+](=O)[O-])c(OC)cc1-c1nc2sc(Cl)cn2c1/C=N/Nc1ccccn1"
  observed-result: "> 50 µM"
- compound: "CCCCCCCCCCN=C(c1ccc(N(C)C)cc1)c1ccc(N(C)C)cc1"
  observed-result: "> 100 µM"
- compound: "CC1(Cc2ccccc2)NC(=S)NC1=O (stereo unspecified)"
  observed-result: "> 100 µM"
- compound: "CCOC(=N)n1c(=O)n(C2=NCCN2)c2ccccc21"
  observed-result: "> 100 µM"
- compound: "CCCn1c(CN(Cc2nc3ccccc3n2CCC)Cc2nc3ccccc3n2CCC)nc2ccccc21"
  observed-result: "40.4 µM"
- compound: "COc1nc(C#CCC(C)O)nc(OC)n1 (stereo unspecified)"
  observed-result: "39.3 µM"
- compound: "C/C(CC1C2CCCC1C2)=N\\NC(N)=O (stereo unspecified)"
  observed-result: "> 100 µM"
- compound: "CCOC(=O)/C=C(\\C)c1ccc(C)cc1C"
  observed-result: "> 100 µM"
- compound: "NNC(=O)c1ccc[n+](CCc2ccccc2)c1"
  observed-result: "> 100 µM"
- compound: "CCOC(=O)c1ccc(N[C@@H]2c3cc4c(cc3C(C3=CC(=O)C(=O)C(OC)=C3)[C@H]3C(=O)OCC32)OCO4)cc1 (stereo partly specified)"
  observed-result: "26.3 µM"
- compound: "CC1(C)N=C(C(N)=O)c2ncn(CCCO)c2N1"
  observed-result: "> 100 µM"
- compound: "O=S(=O)(CCOCc1ccc(-c2ccc3ncnc(Nc4ccc(OCc5cccc(F)c5)c(Cl)c4)c3c2)o1)c1ccccc1"
  observed-result: "> 25 µM"
- compound: "CC(C)/C(Cl)=N\\OC(=O)Nc1ccc(C#N)cc1"
  observed-result: "7.31 µM"
- compound: "C#CCC(N)(CO)C(=O)O (stereo unspecified)"
  observed-result: "> 100 µM"
- compound: "Cc1cc(N(CCC#N)CCC#N)ccc1/C=C1N=C(/C=C/c2ccccc2)OC(=O)N\\1"
  observed-result: "> 100 µM"
- compound: "O=[N+]([O-])/C(C(Cl)=C(Cl)Cl)=C(\\Nc1cccc2cccnc12)SCc1ccccc1"
  observed-result: "49.1 µM"
- compound: "CCC(=C(c1ccc(OCCCN(C)C)cc1)c1ccc(OCCCN(C)C)cc1)c1ccc(Cl)cc1"
  observed-result: "4.9 µM"
- compound: "NC(N)=NS(=O)(=O)c1ccc(NC(=O)c2cccc3c(Nc4ccc(S(N)(=O)=O)cc4)c4ccccc4nc23)cc1"
  observed-result: "> 100 µM"
- compound: "OB1OCc2cc(/C=C/c3cccc(C(F)(F)F)c3)ccc21"
  observed-result: "> 100 µM"
- compound: "CC(=O)O[C@]12CCCCCC1C1(O)C(O)CCC[C@H]12 (stereo partly specified)"
  observed-result: "> 100 µM"
- compound: "CC1(c2ccccc2)CC(c2ccccc2)=NO1 (stereo unspecified)"
  observed-result: "> 100 µM"
- compound: "COc1ccccc1-c1cc(=O)c2ccc(C)nc2[nH]1"
  observed-result: "> 100 µM"
- compound: "CSc1c(C)c(C)nn1-c1ccccc1"
  observed-result: "> 100 µM"
- compound: "Cl[Si]1(Cl)Oc2ccccc2O[Si](Cl)(Cl)Oc2ccccc2O1"
  observed-result: "> 100 µM"
- compound: "c1ccc2nc3c(cc4ccccn43)nc2c1"
  observed-result: "> 100 µM"
